All values here come from PubChem BioAssay AID1963444.

Catalogue of viability, T/C values
# System: HSSY-II complex spheroid growth, percent test/control
# PROCEDURE_TEXT: Anticancer human tumor HSSY-II cell line growth inhibition [Asc];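 further: spheroids exposed to drug for 7 days before reading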
# MEASUREMENT_PARAMETERS: second compound 1 µM; first compound 0.03 µM; active compounds read low
VALUE_KIND: viability, T/C (%)

1. Cc1nc(N2CCC3(CC2)COC(C)C3N)c(CO)nc1Sc1ccnc(N)c1Cl (configuration not stated) + Cc1c(S(C)(=O)=O)c(-c2cc(F)cc(N3CCN(c4ccc(NS(=O)(=O)c5ccc(NC(CCN6CCC(C(=O)OCCCP(=O)(O)O)CC6)CSc6ccccc6)c(S(=O)(=O)C(F)(F)F)c5)cc4)CC3)c2)c(-c2ccc(Cl)cc2)n1C(C)C; 66.1
2. CCN1C(C(=O)NC23CCC(C(=O)O)(CC2)CC3)C(c2cccc(Cl)c2F)C2(C(=O)Nc3cc(Cl)ccc32)C12CCCCC2 (configuration not stated) + CNC(C)C(=O)NC1CN(S(=O)(=O)c2cccc(S(=O)(=O)N3CCC4CCC(C(=O)NC(c5ccccc5)c5ccccc5)N4C(=O)C(NC(=O)C(C)NC)C3)c2)CCC2CCC(C(=O)NC(c3ccccc3)c3ccccc3)N2C1=O; 74.4

###

# System: HSSY-II complex spheroid growth, percent test/control
# PROCEDURE_TEXT: Anticancer human tumor HSSY-II cell line growth inhibition [Asc];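 further: spheroids exposed to drug for 7 days before reading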
# MEASUREMENT_PARAMETERS: second compound 0.01 µM; first compound 0.0316 µM; active compounds read low
Recorded viability, T/C, one value per entry.
VALUE_KIND: viability, T/C (%)

1) O=C(c1cc(Cc2n[nH]c(=O)c3ccccc23)ccc1F)N1CCN(C(=O)C2CC2)CC1 + CNC(C)C(=O)NC1CN(S(=O)(=O)c2cccc(S(=O)(=O)N3CCC4CCC(C(=O)NC(c5ccccc5)c5ccccc5)N4C(=O)C(NC(=O)C(C)NC)C3)c2)CCC2CCC(C(=O)NC(c3ccccc3)c3ccccc3)N2C1=O; 89
2) NC1CCC(NC2CC2c2ccccc2)CC1 (centres undefined) + CNC(C)C(=O)NC1CN(S(=O)(=O)c2cccc(S(=O)(=O)N3CCC4CCC(C(=O)NC(c5ccccc5)c5ccccc5)N4C(=O)C(NC(=O)C(C)NC)C3)c2)CCC2CCC(C(=O)NC(c3ccccc3)c3ccccc3)N2C1=O; 56.4
3) COc1c(OCCCN2CCOCC2)ccc2c3n(c(=NC(=O)c4cnc(N)nc4)nc12)CCN3 + CNC(C)C(=O)NC1CN(S(=O)(=O)c2cccc(S(=O)(=O)N3CCC4CCC(C(=O)NC(c5ccccc5)c5ccccc5)N4C(=O)C(NC(=O)C(C)NC)C3)c2)CCC2CCC(C(=O)NC(c3ccccc3)c3ccccc3)N2C1=O; 51.4
4) Cn1ncnc1[C@H]1c2n[nH]c(=O)c3cc(F)cc(c23)N[C@@H]1c1ccc(F)cc1 + CNC(C)C(=O)NC1CN(S(=O)(=O)c2cccc(S(=O)(=O)N3CCC4CCC(C(=O)NC(c5ccccc5)c5ccccc5)N4C(=O)C(NC(=O)C(C)NC)C3)c2)CCC2CCC(C(=O)NC(c3ccccc3)c3ccccc3)N2C1=O; 43.4

###

The reader will find reported viability, T/C values listed item by item below.
# Tested on: HSSY-II complex spheroid growth, percent test/control
# PROCEDURE_TEXT: Anticancer human tumor HSSY-II cell line growth inhibition [Asc];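 further: spheroids exposed to drug for 7 days before reading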
# MEASUREMENT_PARAMETERS: second compound 1 µM; first compound 0.316 µM; active compounds read low
VALUE_KIND: viability, T/C (%)

1. COc1c(OCCCN2CCOCC2)ccc2c3n(c(=NC(=O)c4cnc(N)nc4)nc12)CCN3 + CNC(C)C(=O)NC1CN(S(=O)(=O)c2cccc(S(=O)(=O)N3CCC4CCC(C(=O)NC(c5ccccc5)c5ccccc5)N4C(=O)C(NC(=O)C(C)NC)C3)c2)CCC2CCC(C(=O)NC(c3ccccc3)c3ccccc3)N2C1=O; 24.7
2. COc1c(OCCCN2CCOCC2)ccc2c3n(c(=NC(=O)c4cnc(N)nc4)nc12)CCN3 + Cc1c(S(C)(=O)=O)c(-c2cc(F)cc(N3CCN(c4ccc(NS(=O)(=O)c5ccc(NC(CCN6CCC(C(=O)OCCCP(=O)(O)O)CC6)CSc6ccccc6)c(S(=O)(=O)C(F)(F)F)c5)cc4)CC3)c2)c(-c2ccc(Cl)cc2)n1C(C)C; 17.7
3. O=C(c1cc(Cc2n[nH]c(=O)c3ccccc23)ccc1F)N1CCN(C(=O)C2CC2)CC1 + Cc1c(S(C)(=O)=O)c(-c2cc(F)cc(N3CCN(c4ccc(NS(=O)(=O)c5ccc(NC(CCN6CCC(C(=O)OCCCP(=O)(O)O)CC6)CSc6ccccc6)c(S(=O)(=O)C(F)(F)F)c5)cc4)CC3)c2)c(-c2ccc(Cl)cc2)n1C(C)C; 76.2

###

# Tested on: HSSY-II complex spheroid growth, percent test/control
# PROCEDURE_TEXT: Anticancer human tumor HSSY-II cell line growth inhibition [Asc];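 further: spheroids exposed to drug for 7 days before reading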
# MEASUREMENT_PARAMETERS: second compound 1 µM; first compound 0.1 µM; active compounds read low
VALUE_KIND: viability, T/C (%)

1. CCN1CCN(Cc2ccc(Nc3ncc(F)c(-c4cc(F)c5nc(C)n(C(C)C)c5c4)n3)nc2)CC1 + CNC(C)C(=O)NC1CN(S(=O)(=O)c2cccc(S(=O)(=O)N3CCC4CCC(C(=O)NC(c5ccccc5)c5ccccc5)N4C(=O)C(NC(=O)C(C)NC)C3)c2)CCC2CCC(C(=O)NC(c3ccccc3)c3ccccc3)N2C1=O; 46.7
2. CCN1CCN(Cc2ccc(Nc3ncc(F)c(-c4cc(F)c5nc(C)n(C(C)C)c5c4)n3)nc2)CC1 + Cc1c(S(C)(=O)=O)c(-c2cc(F)cc(N3CCN(c4ccc(NS(=O)(=O)c5ccc(NC(CCN6CCC(C(=O)OCCCP(=O)(O)O)CC6)CSc6ccccc6)c(S(=O)(=O)C(F)(F)F)c5)cc4)CC3)c2)c(-c2ccc(Cl)cc2)n1C(C)C; 57.6

###

# Test system: HSSY-II complex spheroid growth, percent test/control
# PROCEDURE_TEXT: Anticancer human tumor HSSY-II cell line growth inhibition [Asc];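 further: spheroids exposed to drug for 7 days before reading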
# MEASUREMENT_PARAMETERS: second compound 1 µM; first compound 1 µM; active compounds read low
VALUE_KIND: viability, T/C (%)

1. C=CC(=O)N1CCN(c2nc(=O)n(-c3c(C)ccnc3C(C)C)c3nc(-c4c(O)cccc4F)c(F)cc23)C(C)C1 (stereo not drawn) + Cc1c(S(C)(=O)=O)c(-c2cc(F)cc(N3CCN(c4ccc(NS(=O)(=O)c5ccc(NC(CCN6CCC(C(=O)OCCCP(=O)(O)O)CC6)CSc6ccccc6)c(S(=O)(=O)C(F)(F)F)c5)cc4)CC3)c2)c(-c2ccc(Cl)cc2)n1C(C)C; 100
2. COc1c(OCCCN2CCOCC2)ccc2c3n(c(=NC(=O)c4cnc(N)nc4)nc12)CCN3 + Cc1c(S(C)(=O)=O)c(-c2cc(F)cc(N3CCN(c4ccc(NS(=O)(=O)c5ccc(NC(CCN6CCC(C(=O)OCCCP(=O)(O)O)CC6)CSc6ccccc6)c(S(=O)(=O)C(F)(F)F)c5)cc4)CC3)c2)c(-c2ccc(Cl)cc2)n1C(C)C; 7.86
3. C#Cc1c(F)ccc2cc(O)cc(-c3ncc4c(N5CC6CCC(C5)N6)nc(OCC56CCCN5CC(F)C6)nc4c3F)c12 (stereo not drawn) + Cc1c(S(C)(=O)=O)c(-c2cc(F)cc(N3CCN(c4ccc(NS(=O)(=O)c5ccc(NC(CCN6CCC(C(=O)OCCCP(=O)(O)O)CC6)CSc6ccccc6)c(S(=O)(=O)C(F)(F)F)c5)cc4)CC3)c2)c(-c2ccc(Cl)cc2)n1C(C)C; 105

###

# Test system: HSSY-II complex spheroid growth, percent test/control
# PROCEDURE_TEXT: Anticancer human tumor HSSY-II cell line growth inhibition [Asc];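 further: spheroids exposed to drug for 7 days before reading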
# MEASUREMENT_PARAMETERS: second compound 1 µM; first compound 0.0949 µM; active compounds read low
Known viability, T/C of a selection of molecules
VALUE_KIND: viability, T/C (%)

1) CCN1C(C(=O)NC23CCC(C(=O)O)(CC2)CC3)C(c2cccc(Cl)c2F)C2(C(=O)Nc3cc(Cl)ccc32)C12CCCCC2 (configuration not stated) + Cc1c(S(C)(=O)=O)c(-c2cc(F)cc(N3CCN(c4ccc(NS(=O)(=O)c5ccc(NC(CCN6CCC(C(=O)OCCCP(=O)(O)O)CC6)CSc6ccccc6)c(S(=O)(=O)C(F)(F)F)c5)cc4)CC3)c2)c(-c2ccc(Cl)cc2)n1C(C)C; 47.4
2) NC(=O)C(=Cn1cnc(-c2cc(C(F)(F)F)cc(C(F)(F)F)c2)n1)c1cncnc1 + Cc1c(S(C)(=O)=O)c(-c2cc(F)cc(N3CCN(c4ccc(NS(=O)(=O)c5ccc(NC(CCN6CCC(C(=O)OCCCP(=O)(O)O)CC6)CSc6ccccc6)c(S(=O)(=O)C(F)(F)F)c5)cc4)CC3)c2)c(-c2ccc(Cl)cc2)n1C(C)C; 5.9
